- Study system: Recombinant human serotonin receptor 5-HT1D (Homo sapiens, UniProt P28221)
- Sequence (P28221 whole entry): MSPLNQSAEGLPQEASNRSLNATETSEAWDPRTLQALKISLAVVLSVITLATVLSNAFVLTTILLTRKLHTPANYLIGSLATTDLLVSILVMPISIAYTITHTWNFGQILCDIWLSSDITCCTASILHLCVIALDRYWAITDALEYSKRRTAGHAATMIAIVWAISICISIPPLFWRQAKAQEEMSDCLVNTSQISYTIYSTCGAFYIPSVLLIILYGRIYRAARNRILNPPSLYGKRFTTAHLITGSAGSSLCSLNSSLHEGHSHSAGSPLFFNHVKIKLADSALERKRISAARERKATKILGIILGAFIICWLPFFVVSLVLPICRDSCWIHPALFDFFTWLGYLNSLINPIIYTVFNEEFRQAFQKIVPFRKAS
- Run description: GTPγS functional assay
- Experimental context: read-out: 5-HT1D agonism, EC50
Endpoint label: pEC50
One number for each entry, as −log10 of the molar value.

Task item: Tell us which pEC50 value is on record for CN1C[C@@H](NC(=O)N(CC(F)(F)F)CC(F)(F)F)C=C2c3cccc4[nH]cc(c34)C[C@H]21
Reply: 7.82

----------
- Study system: Recombinant human dopaminergic receptor D3 (Homo sapiens, UniProt P35462)
- Sequence (P35462 whole entry): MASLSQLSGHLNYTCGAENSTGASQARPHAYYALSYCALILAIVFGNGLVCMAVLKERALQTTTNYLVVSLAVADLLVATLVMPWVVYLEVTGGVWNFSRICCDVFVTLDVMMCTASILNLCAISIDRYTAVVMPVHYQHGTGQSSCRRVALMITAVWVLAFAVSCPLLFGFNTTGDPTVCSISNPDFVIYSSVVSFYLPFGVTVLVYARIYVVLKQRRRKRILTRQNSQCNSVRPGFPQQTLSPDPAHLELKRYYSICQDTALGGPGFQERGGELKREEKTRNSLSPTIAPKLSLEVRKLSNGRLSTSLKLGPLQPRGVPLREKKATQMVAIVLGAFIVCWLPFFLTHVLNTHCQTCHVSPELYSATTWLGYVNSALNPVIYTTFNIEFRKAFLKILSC
- Run description: GTPγS functional assay
- Experimental context: 0.005 nM to 10,000 nM; read-out: agonist activity towards the dopaminergic D3 receptor, EC50
Endpoint label: pEC50
One number for each entry, as −log10 of the molar value.

Task item: Tell us which pEC50 value is on record for CN1C[C@@H](NC(=O)N(CC(F)(F)F)CC(F)(F)F)C=C2c3cccc4[nH]cc(c34)C[C@H]21
Reply: 7.57

----------
- Study system: Recombinant human serotonin receptor 5-HT1B (Homo sapiens)
- Sequence (P28222 whole entry): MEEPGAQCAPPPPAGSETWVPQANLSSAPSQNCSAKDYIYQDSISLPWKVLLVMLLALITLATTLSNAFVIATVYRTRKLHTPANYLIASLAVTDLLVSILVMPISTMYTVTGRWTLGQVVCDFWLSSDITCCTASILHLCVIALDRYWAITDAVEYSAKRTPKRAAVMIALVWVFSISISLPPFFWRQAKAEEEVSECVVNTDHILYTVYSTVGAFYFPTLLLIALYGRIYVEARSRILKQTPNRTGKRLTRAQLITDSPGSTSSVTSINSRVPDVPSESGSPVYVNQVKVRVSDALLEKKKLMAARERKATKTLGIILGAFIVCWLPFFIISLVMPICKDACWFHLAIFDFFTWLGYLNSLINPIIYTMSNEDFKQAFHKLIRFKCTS
- Run description: GTPγS functional assay
- Experimental context: read-out: 5-HT1B agonism, EC50
Endpoint label: pEC50
One number for each entry, as −log10 of the molar value.

Task item: Tell us which pEC50 value is on record for CN1C[C@@H](NC(=O)N(CC(F)(F)F)CC(F)(F)F)C=C2c3cccc4[nH]cc(c34)C[C@H]21 [Compound 5A]
Reply: 6.54
